tested.system: T1, formyl peptide receptor-like 1 (FPRL1) (human, UniProt P25090 1-351)
T1 construct: in the other assays endogenous on human neutrophils, monocytes, synoviocytes (FLS, MH7A) or HUVECs; also called FPRL1/RBL; lipoxin A4 receptor (LXA4R)
T1 sequence: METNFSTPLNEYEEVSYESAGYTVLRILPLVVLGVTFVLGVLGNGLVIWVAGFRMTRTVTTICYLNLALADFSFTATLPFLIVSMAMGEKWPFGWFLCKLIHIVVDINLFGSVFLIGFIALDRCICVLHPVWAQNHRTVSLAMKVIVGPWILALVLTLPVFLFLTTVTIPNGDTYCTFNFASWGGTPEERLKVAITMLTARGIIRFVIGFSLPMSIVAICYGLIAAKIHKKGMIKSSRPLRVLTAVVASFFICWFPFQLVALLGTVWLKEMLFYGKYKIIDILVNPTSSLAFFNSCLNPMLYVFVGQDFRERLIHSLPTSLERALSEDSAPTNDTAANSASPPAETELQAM
run.description: displacement of 125I-PACAP27 by unlabeled peptide on FPRL1/RBL cells
Where no end group is shown, it is not given here.
Below is a list of entries, each paired with its recorded pKd value.
Remember, pKd is on a log scale: it is -log10 of the molar concentration.

INSERT INTO measurements (binder, value_measured) VALUES
  ('HSDGIFTDSYSRLRKQMAVKKYLAAVL (ends and bridges not checked, PACAP27 with the VIP residue at position 13; bought from GenScript) [cPACAP13VIP (chimeric PACAP)]', 7.29);

Kindly note the recorded pKd for HSDGIFTDNYSRYRKQMAVKKYLAAVL (ends and bridges not checked, PACAP27 with the VIP residue at position 9; bought from GenScript) [cPACAP9VIP (chimeric PACAP)] , which is 7.29

Data credit: patent US20100291089A1
